Data origin, for the record: ChEMBL document CHEMBL4808236

# Test system: KB
# test_name: Antiproliferative activity against human KB cells assessed as reduction in cell viability measured after 72 hrs by SRB assay
# Assay type: functional, cell-based
pIC50: −log10 of the molar value.
Listing of recorded pIC50 by entry.

Example compounds with recorded pIC50:
compound | assay_target | pIC50
C/C=C/C(=O)O[C@]12C([C@@H]3C=C(CO)C[C@]4(O)C(=O)C(C)=C[C@H]4[C@@]3(O)[C@H](C)[C@H]1O)C2(C)C (single isomer, unassigned) | KB | < 5.00
CCCCCCCCCCCCCCCCCCCC(=O)O[C@@H]1[C@@H](C)[C@@]2(O)[C@@H](C=C(CO)C[C@]3(O)C(=O)C(C)=C[C@@H]23)[C@@H]2C(C)(C)[C@]12OC(=O)CCCCCCCCCCCCCCCCCCC | KB | < 5.00
CC(=O)O[C@H]1C(=O)[C@@]2(C)[C@H]([C@H](OC(=O)c3ccccc3)[C@]3(O)C[C@H](OC(=O)[C@H](O)[C@@H](NC(=O)c4ccccc4)c4ccccc4)C(C)=C1C3(C)C)[C@]1(OC(C)=O)CO[C@@H]1C[C@@H]2O [PACLITAXEL] | KB | 8.10
CC1=C[C@H]2[C@@]3(O)[C@H](C)[C@@H](OC(=O)/C=C/c4ccccc4)[C@]4(OC(=O)/C=C/c5ccccc5)[C@H]([C@@H]3C=C(COC(=O)/C=C/c3ccccc3)C[C@]2(O)C1=O)C4(C)C | KB | < 5.00

Tell me measured pIC50 for CC/C=C/C/C=C/C/C=C/C/C=C/C/C=C/CCCC(=O)O[C@@H]1[C@@H](C)[C@@]2(O)[C@@H](C=C(CO)C[C@]3(O)C(=O)C(C)=C[C@@H]23)[C@@H]2C(C)(C)[C@]12OC(C)=O please.
< 5.00

* * *

Listing of recorded selectivity ratio by entry.
# test_name: Selectivity index, ratio of CC75 for cytotoxicity against human MT4 cells to IC50 for antiviral activity against HIV-1 NL4-3 infected in human MT4 cells
# Assay type: toxicity, cell-based
# condition_set: read-out: Selectivity Index

Tell me measured selectivity ratio for CC/C=C/C/C=C/C/C=C/C/C=C/C/C=C/CCCC(=O)O[C@@H]1[C@@H](C)[C@@]2(O)[C@@H](C=C(CO)C[C@]3(O)C(=O)C(C)=C[C@@H]23)[C@@H]2C(C)(C)[C@]12OC(C)=O please.
> 10000

Tell me measured selectivity ratio for CC1=C[C@H]2[C@@]3(O)[C@H](C)[C@@H](OC(=O)CCc4ccccc4)[C@]4(OC(=O)CCc5ccccc5)[C@H]([C@@H]3C=C(CO)C[C@]2(O)C1=O)C4(C)C please.
> 10000

Tell me measured selectivity ratio for CC1=C[C@H]2[C@@]3(O)[C@H](C)[C@@H](OC(=O)/C=C/c4ccccc4)[C@]4(OC(=O)/C=C/c5ccccc5)[C@H]([C@@H]3C=C(CO)C[C@]2(O)C1=O)C4(C)C please.
> 500

Tell me measured selectivity ratio for CCCCCCCCCCCCCCCCCCCC(=O)O[C@]12C([C@@H]3C=C(CO)C[C@]4(O)C(=O)C(C)=C[C@H]4[C@@]3(O)[C@H](C)[C@H]1O)C2(C)C (single isomer, unassigned) please.
> 350

Tell me measured selectivity ratio for CCCC(=O)O[C@]12C([C@@H]3C=C(CO)C[C@]4(O)C(=O)C(C)=C[C@H]4[C@@]3(O)[C@H](C)[C@H]1OC(=O)/C=C/c1ccc(O)c(OC)c1)C2(C)C (single isomer, unassigned) please.
> 50

Tell me measured selectivity ratio for CC/C=C/C/C=C/C/C=C/C/C=C/C/C=C/CCCC(=O)O[C@]12C([C@@H]3C=C(CO)C[C@]4(O)C(=O)C(C)=C[C@H]4[C@@]3(O)[C@H](C)[C@H]1O)C2(C)C (single isomer, unassigned) please.
> 50

Tell me measured selectivity ratio for CC(=O)O[C@@]12[C@H](OC(=O)/C=C/c3ccccc3)[C@@H](C)[C@@]3(O)[C@@H](C=C(CO)C[C@]4(O)C(=O)C(C)=C[C@@H]34)[C@@H]1C2(C)C please.
> 1500

* * *

Listing of recorded CC75 by entry.
# System: MT4
# test_name: Cytotoxicity against human MT4 cells assessed as reduction in cell viability by CellTiter-Glo luminescence assay
# Format: cell-based

Example compounds with recorded CC75:
compound | assay_target | CC75
CC(=O)O[C@@]12[C@H](OC(=O)/C=C/c3ccccc3)[C@@H](C)[C@@]3(O)[C@@H](C=C(CO)C[C@]4(O)C(=O)C(C)=C[C@@H]34)[C@@H]1C2(C)C | MT4 | > 5 µM
CC(=O)OCC1=C[C@H]2[C@@H]3C(C)(C)[C@]3(OC(C)=O)[C@H](O)[C@@H](C)[C@]2(O)[C@@H]2C=C(C)C(=O)[C@@]2(O)C1 | MT4 | > 5 µM
CC1=C[C@H]2[C@@]3(O)[C@H](C)[C@@H](O)[C@]4(OC(=O)CCc5ccccc5)C([C@@H]3C=C(CO)C[C@]2(O)C1=O)C4(C)C (single isomer, unassigned) | MT4 | > 10 µM
CCCC(=O)OCC1=C[C@H]2[C@@H]3C(C)(C)[C@]3(OC(=O)CCC)[C@H](O)[C@@H](C)[C@]2(O)[C@@H]2C=C(C)C(=O)[C@@]2(O)C1 | MT4 | > 5 µM
CC/C=C/C/C=C/C/C=C/C/C=C/C/C=C/CCCC(=O)O[C@@H]1[C@@H](C)[C@@]2(O)[C@@H](C=C(CO)C[C@]3(O)C(=O)C(C)=C[C@@H]23)[C@@H]2C(C)(C)[C@]12OC(=O)CCC/C=C/C/C=C/C/C=C/C/C=C/C/C=C/CC | MT4 | > 5 µM
C/C=C/C(=O)O[C@]12C([C@@H]3C=C(CO)C[C@]4(O)C(=O)C(C)=C[C@H]4[C@@]3(O)[C@H](C)[C@H]1O)C2(C)C (single isomer, unassigned) | MT4 | > 5 µM

Tell me measured CC75 for CC1=C[C@H]2[C@@]3(O)[C@H](C)[C@@H](O)[C@]4(OC(=O)/C=C/c5ccccc5)C([C@@H]3C=C(CO)C[C@]2(O)C1=O)C4(C)C (single isomer, unassigned) please.
> 5 µM

Tell me measured CC75 for CC1=C[C@H]2[C@@]3(O)[C@H](C)[C@@H](OC(=O)/C=C/c4ccccc4)[C@]4(OC(=O)/C=C/c5ccccc5)[C@H]([C@@H]3C=C(COC(=O)/C=C/c3ccccc3)C[C@]2(O)C1=O)C4(C)C please.
> 5 µM

Tell me measured CC75 for CC/C=C/C/C=C/C/C=C/C/C=C/C/C=C/CCCC(=O)OCC1=C[C@H]2[C@@H]3C(C)(C)[C@]3(OC(=O)CCC/C=C/C/C=C/C/C=C/C/C=C/C/C=C/CC)[C@H](OC(=O)CCC/C=C/C/C=C/C/C=C/C/C=C/C/C=C/CC)[C@@H](C)[C@]2(O)[C@@H]2C=C(C)C(=O)[C@@]2(O)C1 please.
> 5 µM

Tell me measured CC75 for CC(=O)O[C@@H]1[C@@H](C)[C@@]2(O)[C@@H](C=C(CO)C[C@]3(O)C(=O)C(C)=C[C@@H]23)[C@@H]2C(C)(C)[C@]12OC(C)=O please.
> 10 µM

* * *

Listing of recorded IC50 by entry.
# Test system: Human immunodeficiency virus 1
# test_name: Antiviral activity against HIV-1 NL4-3 infected in human MT4 cells assessed as reduction in p24 production treated at 48 hrs post-infection and measured on day 4 post-viral infection by ELISA
# Assay type: functional, organism-based
# condition_set: Human immunodeficiency virus 1, NL4-3, MT4
Your answer should be a plain number; it is taken to be in nM.

Tell me measured IC50 for CCCC(=O)O[C@]12C([C@@H]3C=C(CO)C[C@]4(O)C(=O)C(C)=C[C@H]4[C@@]3(O)[C@H](C)[C@H]1OC(=O)/C=C/c1ccc(O)c(OC)c1)C2(C)C (single isomer, unassigned) please.
87.2

Tell me measured IC50 for CC(=O)O[C@@]12[C@H](OC(=O)/C=C/c3ccccc3)[C@@H](C)[C@@]3(O)[C@@H](C=C(CO)C[C@]4(O)C(=O)C(C)=C[C@@H]34)[C@@H]1C2(C)C please.
3.1

Tell me measured IC50 for CC1=C[C@H]2[C@@]3(O)[C@H](C)[C@@H](OC(=O)CCc4ccccc4)[C@]4(OC(=O)CCc5ccccc5)[C@H]([C@@H]3C=C(CO)C[C@]2(O)C1=O)C4(C)C please.
0.49

* * *

# Test system: Human immunodeficiency virus 1
# test_name: Antiviral activity against HIV-1 NL4-3 infected in human MT4 cells assessed as reduction in p24 production treated at 48 hrs post-infection and measured on day 4 post-viral infection by ELISA
# Type: functional, organism-based
# condition_set: Human immunodeficiency virus 1, NL4-3, MT4
outcome_measure: pIC50
The quantity pIC50 is defined as the negative base-10 logarithm of the molar concentration.

chemical_string | assay_target | outcome_measure | meas_value
COc1cc(/C=C/C(=O)O[C@@H]2[C@@H](C)[C@@]3(O)[C@@H](C=C(CO)C[C@]4(O)C(=O)C(C)=C[C@@H]34)[C@@H]3C(C)(C)[C@]23OC(C)=O)ccc1O | Human immunodeficiency virus 1 | pIC50 | 6.44

Field: next compound
Tell me measured pIC50 for CC/C=C/C/C=C/C/C=C/C/C=C/C/C=C/CCCC(=O)O[C@@H]1[C@@H](C)[C@@]2(O)[C@@H](C=C(CO)C[C@]3(O)C(=O)C(C)=C[C@@H]23)[C@@H]2C(C)(C)[C@]12OC(=O)CCC/C=C/C/C=C/C/C=C/C/C=C/C/C=C/CC please.
6.96
